Test system: mouse Colon26 cancer
TEST METHOD NOTES: inhibitory effects on the growth of mouse Colon26 cancer in vivo
MEASUREMENT SETUP: Colon26 mice, 150 mg/kg p.o.; baseline
PARAMETER: Initial body weight (g)
All answers are understood in g, so give the number only.

Consider the reported Initial body weight for these compounds:
CN(C)c1nc(Nc2ccc3ncccc3c2)nc2[nH]cnc12 [Compound XX]; 19.90
CN1CCN(c2nc(Nc3ccc4ncccc4c3)nc3[nH]cnc23)CC1 [Compound XII]; 19.16
C=CCNc1nc(Nc2ccc3ncccc3c2)nc2[nH]cnc12 [Compound I]; 21.10

Let's switch to this compound now.
// query // lookup Initial body weight for c1cnc2ccc(Nc3nc(N4CCCC4)c4nc[nH]c4n3)cc2c1 [Compound IV]
// result 20.10

* * *

Tested on: mouse S180 sarcoma
TEST METHOD NOTES: inhibitory effects on the growth of mouse S180 sarcoma in vivo
MEASUREMENT SETUP: S180 mice, 100 mg/kg p.o.
Recorded Tumor removed body weight for the following compounds

Consider the reported Tumor removed body weight for these compounds:
CN1CCN(c2nc(Nc3ccc4ncccc4c3)nc3[nH]cnc23)CC1 [Compound XII]; 20.94 g
CN(C)c1nc(Nc2ccc3ncccc3c2)nc2[nH]cnc12 [Compound XX]; 15.90 g
c1cnc2ccc(Nc3nc(N4CCCC4)c4nc[nH]c4n3)cc2c1 [Compound IV]; 19.22 g

Let's switch to this compound now.
// query // lookup Tumor removed body weight for C=CCNc1nc(Nc2ccc3ncccc3c2)nc2[nH]cnc12 [Compound I]
// result 17.61 g

* * *

System: mouse Colon26 cancer
TEST METHOD NOTES: inhibitory effects on the growth of mouse Colon26 cancer in vivo
MEASUREMENT SETUP: Colon26 mice, 100 mg/kg p.o.
Procedure: Antitumor activity tests in vitro and in vivo are carried out to the parital compounds prepared from the above examples. Wherein the method of SRB, MTT is used in vitro, and the action time is about 72 h. Inhibitory effects of the compounds on the growth of mouse Conlon26 cancer are shown in Table 2, inhibitory effects of the compounds on the growth of mouse S180 sarcoma are shown in Table 3.
PARAMETER: Tumor removed body weight (g)
All answers are understood in g, so give the number only.

Consider the reported Tumor removed body weight for these compounds:
CN(C)c1nc(Nc2ccc3ncccc3c2)nc2[nH]cnc12; 18.23
C=CCNc1nc(Nc2ccc3ncccc3c2)nc2[nH]cnc12; 17.46
CN1CCN(c2nc(Nc3ccc4ncccc4c3)nc3[nH]cnc23)CC1; 17.98

// query // lookup Tumor removed body weight for c1cnc2ccc(Nc3nc(N4CCCC4)c4nc[nH]c4n3)cc2c1
// result 18.10

* * *

Recorded End body weight for the following molecules
Tested on: mouse S180 sarcoma
TEST METHOD NOTES: inhibitory effects on the growth of mouse S180 sarcoma in vivo
MEASUREMENT SETUP: S180 mice, 100 mg/kg p.o.
All answers are understood in g, so give the number only.

Consider the reported End body weight for these molecules:
CN(C)c1nc(Nc2ccc3ncccc3c2)nc2[nH]cnc12 [Compound XX]; 16.53
CN1CCN(c2nc(Nc3ccc4ncccc4c3)nc3[nH]cnc23)CC1 [Compound XII]; 22.58
c1cnc2ccc(Nc3nc(N4CCCC4)c4nc[nH]c4n3)cc2c1 [Compound IV]; 20.77

Let's switch to this molecule now.
// query // lookup End body weight for C=CCNc1nc(Nc2ccc3ncccc3c2)nc2[nH]cnc12 [Compound I]
// result 18.32

* * *

Recorded End body weight for the following compounds
Test system: mouse Colon26 cancer
TEST METHOD NOTES: inhibitory effects on the growth of mouse Colon26 cancer in vivo
MEASUREMENT SETUP: Colon26 mice, 150 mg/kg p.o.
All answers are understood in g, so give the number only.

Consider the reported End body weight for these compounds:
CN1CCN(c2nc(Nc3ccc4ncccc4c3)nc3[nH]cnc23)CC1; 18.28
CN(C)c1nc(Nc2ccc3ncccc3c2)nc2[nH]cnc12; 18.68
c1cnc2ccc(Nc3nc(N4CCCC4)c4nc[nH]c4n3)cc2c1; 18.41

// query // lookup End body weight for C=CCNc1nc(Nc2ccc3ncccc3c2)nc2[nH]cnc12
// result 17.96

* * *

Recorded Initial body weight for the following compounds
System: mouse Colon26 cancer
TEST METHOD NOTES: inhibitory effects on the growth of mouse Colon26 cancer in vivo
MEASUREMENT SETUP: Colon26 mice, 100 mg/kg p.o.; baseline
Experimental: Antitumor activity tests in vitro and in vivo are carried out to the parital compounds prepared from the above examples. Wherein the method of SRB, MTT is used in vitro, and the action time is about 72 h. Inhibitory effects of the compounds on the growth of mouse Conlon26 cancer are shown in Table 2, inhibitory effects of the compounds on the growth of mouse S180 sarcoma are shown in Table 3.
Number first, unit second: that is the form wanted.

Consider the reported Initial body weight for these compounds:
CN1CCN(c2nc(Nc3ccc4ncccc4c3)nc3[nH]cnc23)CC1 [Compound XII]; 19.06 g
C=CCNc1nc(Nc2ccc3ncccc3c2)nc2[nH]cnc12 [Compound I]; 19.47 g
CN(C)c1nc(Nc2ccc3ncccc3c2)nc2[nH]cnc12 [Compound XX]; 19.64 g

Let's switch to this compound now.
// query // lookup Initial body weight for c1cnc2ccc(Nc3nc(N4CCCC4)c4nc[nH]c4n3)cc2c1 [Compound IV]
// result 20.09 g

* * *

Tested on: mouse S180 sarcoma
TEST METHOD NOTES: inhibitory effects on the growth of mouse S180 sarcoma in vivo
MEASUREMENT SETUP: S180 mice, 200 mg/kg p.o.
Recorded Tumor weight for the following compounds

c1cnc2ccc(Nc3nc(N4CCCC4)c4nc[nH]c4n3)cc2c1; 1.02 g
C=CCNc1nc(Nc2ccc3ncccc3c2)nc2[nH]cnc12; 0.68 g
CN1CCN(c2nc(Nc3ccc4ncccc4c3)nc3[nH]cnc23)CC1; 1.21 g

Let's switch to this compound now.
// query // lookup Tumor weight for CN(C)c1nc(Nc2ccc3ncccc3c2)nc2[nH]cnc12
// result 0.61 g

* * *

Test system: mouse S180 sarcoma
TEST METHOD NOTES: inhibitory effects on the growth of mouse S180 sarcoma in vivo
MEASUREMENT SETUP: S180 mice, 200 mg/kg p.o.; baseline
Recorded Initial body weight for the following molecules
All answers are understood in g, so give the number only.

Consider the reported Initial body weight for these molecules:
CN(C)c1nc(Nc2ccc3ncccc3c2)nc2[nH]cnc12; 19.58
C=CCNc1nc(Nc2ccc3ncccc3c2)nc2[nH]cnc12; 18.97
CN1CCN(c2nc(Nc3ccc4ncccc4c3)nc3[nH]cnc23)CC1; 19.46

Let's switch to this molecule now.
// query // lookup Initial body weight for c1cnc2ccc(Nc3nc(N4CCCC4)c4nc[nH]c4n3)cc2c1
// result 19.49

* * *

Test system: mouse S180 sarcoma
TEST METHOD NOTES: inhibitory effects on the growth of mouse S180 sarcoma in vivo
MEASUREMENT SETUP: S180 mice, 200 mg/kg p.o.
PARAMETER: Tumor removed body weight (g)
All answers are understood in g, so give the number only.

Consider the reported Tumor removed body weight for these compounds:
c1cnc2ccc(Nc3nc(N4CCCC4)c4nc[nH]c4n3)cc2c1 [Compound IV]; 18.10
CN(C)c1nc(Nc2ccc3ncccc3c2)nc2[nH]cnc12 [Compound XX]; 16.20
C=CCNc1nc(Nc2ccc3ncccc3c2)nc2[nH]cnc12 [Compound I]; 15.36

Let's switch to this compound now.
// query # query: Tumor removed body weight | item CN1CCN(c2nc(Nc3ccc4ncccc4c3)nc3[nH]cnc23)CC1 [Compound XII] | system: mouse S180 sarcoma
// result 20.14

* * *

System: mouse Colon26 cancer
TEST METHOD NOTES: inhibitory effects on the growth of mouse Colon26 cancer in vivo
MEASUREMENT SETUP: Colon26 mice, 150 mg/kg p.o.
PARAMETER: Tumor removed body weight (g)
All answers are understood in g, so give the number only.

C=CCNc1nc(Nc2ccc3ncccc3c2)nc2[nH]cnc12 [Compound I]; 17.26
CN(C)c1nc(Nc2ccc3ncccc3c2)nc2[nH]cnc12 [Compound XX]; 18.31
c1cnc2ccc(Nc3nc(N4CCCC4)c4nc[nH]c4n3)cc2c1 [Compound IV]; 17.57

Let's switch to this compound now.
// query # query: Tumor removed body weight | item CN1CCN(c2nc(Nc3ccc4ncccc4c3)nc3[nH]cnc23)CC1 [Compound XII] | system: mouse Colon26 cancer
// result 17.36

* * *

Tested on: mouse S180 sarcoma
TEST METHOD NOTES: inhibitory effects on the growth of mouse S180 sarcoma in vivo
MEASUREMENT SETUP: S180 mice, 100 mg/kg p.o.; baseline
PARAMETER: Initial body weight (g)
All answers are understood in g, so give the number only.

Consider the reported Initial body weight for these molecules:
CN1CCN(c2nc(Nc3ccc4ncccc4c3)nc3[nH]cnc23)CC1; 19.22
c1cnc2ccc(Nc3nc(N4CCCC4)c4nc[nH]c4n3)cc2c1; 18.99
C=CCNc1nc(Nc2ccc3ncccc3c2)nc2[nH]cnc12; 19.74

Let's switch to this molecule now.
// query // lookup Initial body weight for CN(C)c1nc(Nc2ccc3ncccc3c2)nc2[nH]cnc12
// result 19.96
